target: BAZ2A (Homo sapiens); construct: the phylogenetically diverse BAZ2A, BRD4(1), and BRD9 bromodomains; Structural Genomics Consortium (Oxford); experiment: AlphaScreen single shot screening, BAZ2A with biotin-H3K14Ac peptide; format: binding; conditions: average of triplicate, BAZ2A 25 nM, biotin-H3 5-24 KAc14 50 nM, read-out: Percentage inhibition of bromodomain-KAc recognition, BAZ2A, H3K14Ac
Measure: inhibition (%)

given_smiles=Cc1noc(C)c1-c1cccc(C[C@H](N)C(=O)O)c1 reported_measurement=5.8
given_smiles=Cc1cc(CNC(=O)C[C@H](N)C(=O)O)on1 reported_measurement=1.9
given_smiles=Cc1cc(NC(=O)C[C@H](N)C(=O)O)no1 reported_measurement=12.6
given_smiles=Cc1noc(C)c1-c1ccc(C[C@H](N)C(=O)O)cc1 reported_measurement=2.6
given_smiles=Cc1noc(C)c1NC(=O)C[C@H](N)C(=O)O reported_measurement=10.5
given_smiles=Cc1cc(NC(=O)C[C@H](N)C(=O)O)on1 reported_measurement=14.5
given_smiles=Cc1noc(C)c1NC(=O)CC[C@H](N)C(=O)O reported_measurement=1.4

* * *

Documented inhibition at 0.004 µM across a set of compounds
biological target: BRD4(1) (Homo sapiens, UniProt O60885); construct: the phylogenetically diverse BAZ2A, BRD4(1), and BRD9 bromodomains; His tag (pNIC28-Bsa4 vector; purified on HisTrap) (N); made in house; host or cells: E. coli BL21 (DE3) Gold; assay: AlphaScreen assay inhibiting the interaction of BRD4(1) with biotinylated H4(KAc)4; format: binding; settings: read-out: Percentage inhibition of bromodomain-KAc recognition, BRD4(1), H4(KAc)4, amino acid 50 μM; AlphaScreen; average of triplicate; BRD4(1) 10 nM, biotin-H4(KAc)4 4 nM
Measure: inhibition at 0.004 µM

given_smiles=Cc1noc(C)c1NC(=O)C[C@H](N)C(=O)O reported_measurement=1.3%
given_smiles=Cc1noc(C)c1NC(=O)CC[C@H](N)C(=O)O reported_measurement=4.1%
given_smiles=Cc1cc(COC[C@H](N)C(=O)O)on1 reported_measurement=0.6%
given_smiles=Cc1noc(C)c1-c1ccc(C[C@H](N)C(=O)O)cc1 reported_measurement=22.7%
given_smiles=Cc1cc(CNC(=O)C[C@H](N)C(=O)O)on1 reported_measurement=4.7%
given_smiles=Cc1cc(NC(=O)C[C@H](N)C(=O)O)no1 reported_measurement=0.9%
given_smiles=Cc1noc(C)c1-c1cccc(C[C@H](N)C(=O)O)c1 reported_measurement=18.3%

* * *

molecular target: BRD9 (Homo sapiens); construct: the phylogenetically diverse BAZ2A, BRD4(1), and BRD9 bromodomains; Structural Genomics Consortium (Oxford); assay: AlphaScreen single shot screening, BRD9 with biotin-H2A(KAc)3 peptide; assay type: binding; settings: amino acid 50 μM as headed in Table 1 (supplement: 25 µM), average of triplicate, BRD9 40 nM, biotin-H2A 1-21 KAc9KAc13KAc15 25 nM, read-out: Percentage inhibition of bromodomain-KAc recognition, BRD9, H2(KAc)3
Documented inhibition at 25 µM across a set of compounds
Measure: inhibition at 25 µM (%)

compound="Cc1cc(NC(=O)C[C@H](N)C(=O)O)no1 [compound 13]" measure="inhibition at 25 µM" unit_abbrev=% reported_measurement=-1
compound="Cc1noc(C)c1NC(=O)CC[C@H](N)C(=O)O [compound 10]" measure="inhibition at 25 µM" unit_abbrev=% reported_measurement=-4.8
compound="Cc1noc(C)c1-c1ccc(C[C@H](N)C(=O)O)cc1 [compound 9]" measure="inhibition at 25 µM" unit_abbrev=% reported_measurement=-1.7
compound="Cc1noc(C)c1-c1cccc(C[C@H](N)C(=O)O)c1 [compound 8]" measure="inhibition at 25 µM" unit_abbrev=% reported_measurement=-7.7
compound="Cc1noc(C)c1NC(=O)C[C@H](N)C(=O)O [compound 12]" measure="inhibition at 25 µM" unit_abbrev=% reported_measurement=-2.1
compound="Cc1cc(CNC(=O)C[C@H](N)C(=O)O)on1 [compound 11]" measure="inhibition at 25 µM" unit_abbrev=% reported_measurement=-8.1
compound="Cc1cc(NC(=O)C[C@H](N)C(=O)O)on1 [compound 14]" measure="inhibition at 25 µM" unit_abbrev=% reported_measurement=1.4

* * *

Documented inhibition at 250 µM across a set of compounds
molecular target: BRD9 (Homo sapiens, UniProt Q9H8M2); construct: the phylogenetically diverse BAZ2A, BRD4(1), and BRD9 bromodomains; Structural Genomics Consortium (Oxford); test: AlphaScreen single shot screening, BRD9 with biotin-H2A(KAc)3 peptide; assay type: binding; conditions: amino acid 250 μM, average of triplicate, BRD9 40 nM, biotin-H2A 1-21 KAc9KAc13KAc15 25 nM, <0.5% DMSO, read-out: Percentage inhibition of bromodomain-KAc recognition, BRD9, H2(KAc)3
Measure: inhibition at 250 µM

given_smiles=Cc1noc(C)c1NC(=O)CC[C@H](N)C(=O)O measure="inhibition at 250 µM" reported_measurement=-3.1%
given_smiles=Cc1cc(CNC(=O)C[C@H](N)C(=O)O)on1 measure="inhibition at 250 µM" reported_measurement=-0.1%
given_smiles=Cc1noc(C)c1-c1ccc(C[C@H](N)C(=O)O)cc1 measure="inhibition at 250 µM" reported_measurement=66.5%
given_smiles=Cc1noc(C)c1-c1cccc(C[C@H](N)C(=O)O)c1 measure="inhibition at 250 µM" reported_measurement=0.5%
given_smiles=Cc1cc(NC(=O)C[C@H](N)C(=O)O)no1 measure="inhibition at 250 µM" reported_measurement=47.9%

* * *

Biological target: BRD9 (Homo sapiens, UniProt Q9H8M2)
Construct: the phylogenetically diverse BAZ2A, BRD4(1), and BRD9 bromodomains; Structural Genomics Consortium (Oxford)
Sequence (Q9H8M2 136-240 limits assumed): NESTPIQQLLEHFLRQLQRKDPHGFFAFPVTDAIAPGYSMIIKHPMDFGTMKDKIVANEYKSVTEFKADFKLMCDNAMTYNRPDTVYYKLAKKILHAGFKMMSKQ
Assay: AlphaScreen single shot screening, BRD9 with biotin-H2A(KAc)3 peptide
Assay type: binding
Conditions: amino acid 250 μM, average of triplicate, BRD9 40 nM, biotin-H2A 1-21 KAc9KAc13KAc15 25 nM, <0.5% DMSO, read-out: Percentage inhibition of bromodomain-KAc recognition, BRD9, H2(KAc)3
Documented inhibition at 250 µM across a set of molecules
Measure: inhibition at 250 µM

given_smiles=Cc1noc(C)c1NC(=O)C[C@H](N)C(=O)O measure="inhibition at 250 µM" reported_measurement=12.6%
given_smiles=Cc1cc(C(=O)NC[C@H](N)C(=O)O)on1 measure="inhibition at 250 µM" reported_measurement=73.6%
given_smiles=Cc1cc(NC(=O)C[C@H](N)C(=O)O)on1 measure="inhibition at 250 µM" reported_measurement=14.6%

* * *

Target: BAZ2A (Homo sapiens)
Construct: the phylogenetically diverse BAZ2A, BRD4(1), and BRD9 bromodomains; Structural Genomics Consortium (Oxford)
Sequence (Q9UIF9 1793-1897 limits assumed): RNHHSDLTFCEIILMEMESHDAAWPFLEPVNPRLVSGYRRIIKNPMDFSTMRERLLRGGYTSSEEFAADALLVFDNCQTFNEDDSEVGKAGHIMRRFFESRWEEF
Test: AlphaScreen single shot screening, BAZ2A with biotin-H3K14Ac peptide
Type: binding
Conditions: amino acid 250 μM, average of triplicate, BAZ2A 25 nM, biotin-H3 5-24 KAc14 50 nM, <0.5% DMSO, read-out: Percentage inhibition of bromodomain-KAc recognition, BAZ2A, H3K14Ac
Documented inhibition at 250 µM across a set of compounds
Measure: inhibition at 250 µM

given_smiles=Cc1noc(C)c1NC(=O)C[C@H](N)C(=O)O measure="inhibition at 250 µM" reported_measurement=66.9%
given_smiles=Cc1cc(C(=O)NC[C@H](N)C(=O)O)on1 measure="inhibition at 250 µM" reported_measurement=98.7%
given_smiles=Cc1noc(C)c1-c1cccc(C[C@H](N)C(=O)O)c1 measure="inhibition at 250 µM" reported_measurement=45.3%
given_smiles=Cc1noc(C)c1-c1ccc(C[C@H](N)C(=O)O)cc1 measure="inhibition at 250 µM" reported_measurement=28.1%
given_smiles=Cc1cc(NC(=O)C[C@H](N)C(=O)O)on1 measure="inhibition at 250 µM" reported_measurement=84.3%
given_smiles=Cc1noc(C)c1NC(=O)CC[C@H](N)C(=O)O measure="inhibition at 250 µM" reported_measurement=25.1%
given_smiles=Cc1cc(NC(=O)C[C@H](N)C(=O)O)no1 measure="inhibition at 250 µM" reported_measurement=96.1%
given_smiles=Cc1cc(CNC(=O)C[C@H](N)C(=O)O)on1 measure="inhibition at 250 µM" reported_measurement=53.8%
